These measurements were taken from ChEMBL document CHEMBL3046097.

Tested on: RAW264.7
Assay: Anti-inflammatory activity in Mus musculus (mouse) RAW264.7 cells assessed as inhibition of IFN-gamma/LPS-induced NO production after 17 to 20 hr by Griess assay
Assay type: functional, cell-based
Details: read-out: IC50
Listing: IC50 of selected compounds
Your answer should be a plain number; it is taken to be in µM.

{"Compound Smiles": "O=C(/C=C/c1cccc(O)c1)c1ccc(Cl)s1", "Unit Descriptor": "µM", "Meas Value": 33.3}
{"Compound Smiles": "COc1ccc(OC)c(/C=C/C(=O)c2cccs2)c1", "Unit Descriptor": "µM", "Meas Value": 38.7}
{"Compound Smiles": "Cc1ccc(C(=O)/C=C/c2ccc(F)cc2)o1", "Unit Descriptor": "µM", "Meas Value": 17}

[in] // returns reported IC50 for input Cc1cc(C(=O)/C=C/c2ccccc2O)c(C)o1
[out] 13.8

[in] Bench note: what IC50 did Cc1ccc(C(=O)/C=C/c2ccccc2F)o1 show?
[out] 12.9
